Test system: XIP peptide (Xip251-270) binding
procedure_details: small-molecule binders of XIP peptide, primary screen, biochemical, small-molecule microarray, fluorescence 635/667 nm, 0.1 µg/mL protein (AID 1182)
particulars: fluorescent protein binding, 635 nm, higher = more signal, called active from +8 up or from −8 down
observation_type: composite z-score
Number only, please.

For orientation, consider the following solved cases.
[
  {
    "molecule": "O=C1O[C@@H](c2ccccc2)[C@@H](c2ccccc2)N2[C@@H](c3ccccc3OCCO)[C@]3(C(=O)Nc4ccc(C#CCCO)cc43)[C@@H](C(=O)N3CCCCCCC3)[C@H]12",
    "composite z-score": 8.49
  },
  {
    "molecule": "N#Cc1ccc(C(O)C2C=CC3C(=O)N(c4ccccc4)C(=O)C3N2Nc2ccccc2)cc1 (configuration not stated)",
    "composite z-score": 0.294
  }
]

[Q] Using the record for `COC(=O)c1ccc([C@H](NC(=O)c2ccco2)[C@]2(C)C[C@H]2C2CCCCC2)cc1` , report its composite z-score.
[A] -0.235

[Q] Using the record for O=C1OCC=C[C@H]2OC34C=CCN(c5ccc(Cl)cc5)C(=O)[C@H]3N(CCO)C(=O)[C@@H]4[C@@H]12 (some centres not stated) , report its composite z-score.
[A] -0.0292

[Q] Using the record for `CCOC(=O)C1=CC[C@@H](c2cccc(Cl)c2)N(S(=O)(=O)c2ccc(C)cc2)C1` , report its composite z-score.
[A] 1.46

[Q] Using the record for CCOc1cc(C(O)C2C=CC3C(=O)N(C)C(=O)C3N2Nc2ccccc2)ccc1O (configuration not stated) , report its composite z-score.
[A] 0.705

[Q] Using the record for `O=C1O[C@@H](c2ccccc2)[C@@H](c2ccccc2)N2[C@@H](c3ccc(OCCO)cc3)[C@]3(C(=O)Nc4ccccc43)[C@@H](C(=O)O)[C@H]12` , report its composite z-score.
[A] 0.442

All figures here come from PubChem BioAssay.
